target: T1, human PD-1 expressed on CHO cells (human, UniProt Q15116 25-288); assay: hPD-1 binding titration (format not named; taken as cell binding)
T1 construct: also called hPD-1; CHO-hPD-1
parameter_measured: pKd
One number for each entry, as −log10 of the molar value.

1353-G10 H1/vk1-39 IgG (antibody, V domains shown, IgG; also called Sample L) VH: EVQLVQSGAEVKKPGASVKVSCKASGYTFDSYGISWVRQAPGQGLEWMGWISAYNGNTNYAQKLQGRVTMTTDTSTNTAYMELRSLRSDDTAVYYCARDVDYGTGSGYWGQGTLVTVSS VL: DIQLTQSPSSLSASVGDRVTITCSGDALPKQYAYWYQQKPGKAPKLLIYKDTERPSGVPSRFSGSSSGTKVTLTISSLQPEDFATYYCQSADNSITYRVFGGGTKVEIK: 7.89
1353-G10 wt IgG (antibody, V domains shown, IgG; also called Sample I) VH: EVQLVQSGAEVKKPGASVKVSCKASGYRFPHYGISWVRQAPGQGLEWMGWISAYNGNTNYAQKLQGRVTMTTDTSTNTAYMELRSLRSDDTAVYYCARDVDYGTGSGYWGQGTLVTVSS VL: SYELTQPPSVSVSPGQTARITCSGDALPKQYAYWYQQKPGQAPVMVIYKDTERPSGIPERFSGSSSGTKVTLTISGVQAEDEADYYCQSADNSITYRVFGGGTKVTVL: 10.00

Proceed to the following item.
Look up and state reported pKd for 1353-G10 vk1-39 LC IgG (antibody, V domains shown, IgG; also called Sample K) VH: EVQLVQSGAEVKKPGASVKVSCKASGYRFPHYGISWVRQAPGQGLEWMGWISAYNGNTNYAQKLQGRVTMTTDTSTNTAYMELRSLRSDDTAVYYCARDVDYGTGSGYWGQGTLVTVSS VL: DIQLTQSPSSLSASVGDRVTITCSGDALPKQYAYWYQQKPGKAPKLLIYKDTERPSGVPSRFSGSSSGTKVTLTISSLQPEDFATYYCQSADNSITYRVFGGGTKVEIK
9.10
